Recorded pEC50 values for a group of molecules are listed next.
# Tested on: Trypanosoma cruzi amastigotes (Tulahuen strain expressing Lac-Z) cultured in 3T3 fibroblast cells
# Assay summary: microbe, parasite or virus in culture
# Assay type: cell-based
# Study conditions: Trypanosoma cruzi, TULAHUEN, Fibroblast, T. cruzi amastigotes in 3T3 fibroblast cells; read-out: T cruzi EC50
pEC50: −log10 of the molar value.
Quantity name: pEC50

{"columns": ["Smiles", "Qual", "Observed result"],
 "data": [
  ["COC(=O)COc1cnc2nc(-c3cc(NC(=O)c4oc(C)nc4C)ccc3F)cn2c1", "<", 4.70],
  ["O=C(Nc1ccc(F)c(-c2cn3cc(C4CCOCC4)cnc3n2)c1)N1CCCC1", "=", 6.94],
  ["CN(C)c1cnc2nc(-c3cc(NC(=O)N4CC(F)(F)C4)ccc3F)cn2c1", "=", 6.74],
  ["Cc1nc(C)c(C(=O)Nc2ccc(F)c(-c3cn4cc(NC(C)C)cnc4n3)c2)o1", "=", 6.82],
  ["Cc1nc(C)c(C(=O)Nc2ccc(F)c(-c3cn4cc(-c5cscn5)cnc4n3)c2)o1", "=", 7.39],
  ["CN(C)c1cnc2nc(-c3cc(NC(=O)N4CCC4)ccc3F)cn2c1", "=", 6.84],
  ["Cc1nc(C)c(C(=O)Nc2ccc(F)c(-c3cn4cc(-c5cnn(C6CCOCC6)c5)cnc4n3)c2)o1", "=", 5.93]
]}

Value source: patent US20160045505A1
